# ASSAY TARGET: human RXFP1 (Homo sapiens)
# Construct: expressed in transfected cells
# Sequence (Q9HBX9 1-757): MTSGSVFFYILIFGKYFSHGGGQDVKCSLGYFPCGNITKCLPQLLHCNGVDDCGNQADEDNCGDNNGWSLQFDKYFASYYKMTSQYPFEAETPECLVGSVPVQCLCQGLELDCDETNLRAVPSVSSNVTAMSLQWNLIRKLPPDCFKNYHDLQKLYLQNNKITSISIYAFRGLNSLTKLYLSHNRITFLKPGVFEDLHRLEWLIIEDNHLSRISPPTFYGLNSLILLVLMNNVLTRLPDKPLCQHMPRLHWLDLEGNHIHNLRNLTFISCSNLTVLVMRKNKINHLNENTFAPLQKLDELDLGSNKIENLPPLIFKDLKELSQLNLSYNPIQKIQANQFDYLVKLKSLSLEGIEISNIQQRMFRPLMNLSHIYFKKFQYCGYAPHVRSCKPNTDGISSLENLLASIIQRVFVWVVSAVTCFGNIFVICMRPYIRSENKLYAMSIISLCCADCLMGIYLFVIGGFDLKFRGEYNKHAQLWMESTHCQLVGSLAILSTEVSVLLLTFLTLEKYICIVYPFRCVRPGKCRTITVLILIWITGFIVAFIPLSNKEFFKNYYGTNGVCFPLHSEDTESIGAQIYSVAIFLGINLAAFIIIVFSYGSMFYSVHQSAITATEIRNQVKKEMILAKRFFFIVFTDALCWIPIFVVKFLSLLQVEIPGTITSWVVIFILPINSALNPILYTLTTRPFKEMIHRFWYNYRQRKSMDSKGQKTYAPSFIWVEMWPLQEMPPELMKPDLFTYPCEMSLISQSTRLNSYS
# ASSAY INFO: RXFP1 cAMP assay (hRXFP1 HEK293 cAMP assay, HTRF)
# Type: cell-based
# REPORTED CONDITIONS: HEK293 cells stably expressing human RXFP1, 30 min at room temperature, read-out: cAMP hRXFP1 HEK293 Assay EC50
RESULT TYPE: EC50

# MOLECULE, ASSAY TARGET, EC50
data = [
    ("COc1ccc(-c2cc(C(=O)N3CC[C@@H](O)C3)on2)cc1C(=O)N[C@H]1[C@@H](C(=O)Nc2ccc(F)c(C(F)(F)F)c2)[C@H]2CC[C@@H]1/C2=C\\C1CC1", "human RXFP1 (Homo sapiens)", "153 nM"),
    ("COc1ccc(-c2cc(C(COC(=O)Nc3ccccc3)C(F)(F)F)ccc2F)cc1C(=O)N[C@H]1[C@@H](C(=O)Nc2ccc(F)c(C(F)(F)F)c2)[C@H]2CC[C@@H]1/C2=C\\C1CC1 (some centres unmarked) [compound 875]", "human RXFP1 (Homo sapiens)", "1.8 nM"),
    ("CNC(=O)C(OC(=O)Nc1ccccc1)c1ccc(F)c(-c2ccc(OC)c(C(=O)N[C@@H]3C4CCC(/C4=C/C4CC4)[C@@H]3C(=O)Nc3ccc(F)c(C(F)(F)F)c3)c2)c1 (some centres unmarked)", "human RXFP1 (Homo sapiens)", "2 nM"),
]

Field request: EC50 | item: COc1cc(F)c(F)cc1C(=O)N[C@@H]1[C@@H]2CCC(/C2=C/c2ccoc2)[C@@H]1C(=O)Nc1ccc(F)c(C(F)(F)F)c1
410 nM

Field request: EC50 | item: COc1ccc(C23COC(C(=O)O)(C2)C3)cc1C(=O)N[C@H]1[C@@H](C(=O)Nc2ccc(F)c(C(F)(F)F)c2)[C@H]2CC[C@@H]1/C2=C\C(F)(F)F
5000 nM
